assay_info: pH of solute solutions of equivalent molarity
Assay type: physicochemical
condition_details: solution in 1:1 volumetric ratio acetonitrile to de-ionized water; 1.32 × 10^−6 mol, concentration as in Table 3
Note to self: values exactly at 4 are criterion met. So pH at or above 4 is criterion met, below is criterion not met.

compound="O=C(O)c1ccccc1O [Salicylic acid]" discrete_label="criterion not met"
compound="N#CC(=Cc1ccc(O)cc1)C(=O)O [αCHCA, α-cyano-4-hydroxycinnamic acid]" discrete_label="criterion not met"
compound="Oc1ccccc1O [Catechol]" discrete_label="criterion met"
compound="O=C(O)c1ccccc1 [Benzoic acid]" discrete_label="criterion not met"
compound="OCCCCCCCCCCO [Decanediol, 1,10-Decanediol]" discrete_label="criterion met"
